Source listed as patent US8609610B2.

target: caspase-like sites (β1) of proteasome in MM cells (Homo sapiens, UniProt P28072+Q99436); assay: PROTEASOMEGLO assay of proteasome inhibition in MM cells; format: cell-based; settings: RPMI-8226 cells, 6 hours; >>30 no inhibition at 30 μM, >30 inhibition 10-50% at 30 μM; read-out: IC50 for sites: Casp-L
Sequence (P28072 35-239): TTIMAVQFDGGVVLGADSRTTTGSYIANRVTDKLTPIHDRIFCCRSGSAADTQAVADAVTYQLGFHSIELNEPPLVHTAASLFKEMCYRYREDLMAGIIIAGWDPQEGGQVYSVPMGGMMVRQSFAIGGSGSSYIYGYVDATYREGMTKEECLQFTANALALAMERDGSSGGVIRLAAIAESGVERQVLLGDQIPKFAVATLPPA
Sequence (Q99436 44-277): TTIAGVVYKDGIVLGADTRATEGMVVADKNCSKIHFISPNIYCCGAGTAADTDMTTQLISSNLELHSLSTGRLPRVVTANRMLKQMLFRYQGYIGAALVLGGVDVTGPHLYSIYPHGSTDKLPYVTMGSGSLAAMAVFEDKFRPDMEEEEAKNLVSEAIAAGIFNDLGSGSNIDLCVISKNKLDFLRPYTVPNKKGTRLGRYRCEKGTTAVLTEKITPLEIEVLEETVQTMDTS
pIC50: −log10 of the molar value.
PROPERTY_LABEL: pIC50

Exam item: Please report the measured pIC50 for Cc1c(O)cccc1C(=O)N[C@H](C(=O)N[C@@H](CO)C(=O)N[C@@H](CCCNC(=N)N)C(=O)[C@@]1(C)CO1)C(C)C
Marked response: < 4.52
